measured_on: Human recombinant PDE2A (hPDE2A) (Homo sapiens, UniProt O00408)
Construct: His tag (inferred from metal chelate purification); made in house; host or cells: Sf9 insect cells (baculovirus)
Sequence (O00408 whole entry): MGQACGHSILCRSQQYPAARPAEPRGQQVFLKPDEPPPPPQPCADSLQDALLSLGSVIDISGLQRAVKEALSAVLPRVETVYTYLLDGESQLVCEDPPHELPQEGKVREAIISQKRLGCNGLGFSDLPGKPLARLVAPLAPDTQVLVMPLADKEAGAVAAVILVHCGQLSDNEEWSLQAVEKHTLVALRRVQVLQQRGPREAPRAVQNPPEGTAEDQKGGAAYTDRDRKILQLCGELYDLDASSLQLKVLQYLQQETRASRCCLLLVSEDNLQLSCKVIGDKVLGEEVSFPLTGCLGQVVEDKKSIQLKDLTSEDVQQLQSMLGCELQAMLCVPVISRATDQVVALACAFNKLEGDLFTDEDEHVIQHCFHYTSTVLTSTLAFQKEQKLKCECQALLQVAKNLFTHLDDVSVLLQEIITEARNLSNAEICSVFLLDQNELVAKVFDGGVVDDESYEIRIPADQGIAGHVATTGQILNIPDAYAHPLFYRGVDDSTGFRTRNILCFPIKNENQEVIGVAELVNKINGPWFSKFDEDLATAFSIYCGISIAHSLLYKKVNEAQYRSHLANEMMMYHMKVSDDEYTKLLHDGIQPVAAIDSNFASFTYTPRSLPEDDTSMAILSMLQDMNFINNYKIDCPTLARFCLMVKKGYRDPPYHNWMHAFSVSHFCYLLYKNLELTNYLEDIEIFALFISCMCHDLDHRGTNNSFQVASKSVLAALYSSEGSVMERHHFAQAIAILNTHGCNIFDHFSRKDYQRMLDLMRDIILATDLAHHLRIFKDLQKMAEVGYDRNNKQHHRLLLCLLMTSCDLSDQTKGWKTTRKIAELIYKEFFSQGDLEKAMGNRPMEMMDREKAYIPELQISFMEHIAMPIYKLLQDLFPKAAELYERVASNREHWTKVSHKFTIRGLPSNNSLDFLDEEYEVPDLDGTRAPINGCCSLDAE
assay_notes: In vitro assay PDE2A (SPA, 3H-cGMP hydrolysis)
Format: biochemical
condition_context: read-out: hPDE2A Emax
quantity_measured: Emax (%)
Give bare numbers, in %.

Reference set (2 entries):
Cc1nc2cccc(C(=O)N3[C@H]4CC[C@H](c5cc(C(F)F)nc6ncnn56)[C@@H]3CC4)c2o1	100
C[C@@H]1CCN(C(=O)c2cc3n(n2)CCO3)C[C@H]1c1cc(C(F)F)nc2ncnn12	98

Okay, here is my list. What is Emax for each of these?
1. Cc1nc2cc(C(=O)N3[C@H]4CC[C@H](c5cc(C(F)F)nc6ncnn56)[C@@H]3CC4)ccc2o1
2. C[C@@H]1CCN(C(=O)c2cccnc2F)C[C@H]1c1cc(C(F)F)nc2ncnn12
3. O=C(c1ccc2occc2c1)N1[C@H]2CC[C@H](c3cc(C(F)F)nc4ncnn34)[C@@H]1CC2
4. Cc1csc(C(=O)N2CC[C@@H](C)[C@H](c3cc(C(F)F)nc4ncnn34)C2)c1
5. Cc1cc(C(=O)N2CC[C@@H](C)[C@H](c3cc(C(F)F)nc4ncnn34)C2)c(F)c(C)n1
6. O=C(c1ccc(F)c(OC(F)F)c1)N1[C@H]2CC[C@H](c3cc(C(F)F)nc4ncnn34)[C@@H]1CC2

**A:**
[100, 101, 99, 101, 102, 99]

Go through the list and state Emax for each entry.
1. COc1cccc2cc(C(=O)N3CC[C@@H](C)[C@H](c4cc(C(F)F)nc5ncnn45)C3)oc12
2. Cc1cc(C(=O)N2CC[C@@H](C)[C@H](c3cc(C(F)F)nc4ncnn34)C2)cc(C(F)(F)F)n1

**A:**
[101, 101]

Could you report Emax for every entry in the following list?
1. C[C@@H]1CCN(C(=O)c2c(Cl)cncc2Cl)C[C@H]1c1cc(C(F)F)nc2ncnn12
2. C[C@@H]1CCN(C(=O)c2ccnn2C)C[C@H]1c1cc(C(F)F)nc2ncnn12
3. Cc1cc(C(=O)N2CC[C@@H](C)[C@H](c3cc(C(F)F)nc4ncnn34)C2)nc(C)n1

**A:**
82
100
100

Give Emax for all compounds that follow.
1. Cc1cnc(C(=O)N2[C@H]3CC[C@H](c4cc(C(F)F)nc5ncnn45)[C@@H]2CC3)cc1C
2. C[C@@H]1CCN(C(=O)c2ccc3ncsc3c2)C[C@@]1(F)c1cc(C(F)F)nc2ncnn12

**A:**
99
99

// provenance: patent US10947242B2
